In this section, each of the compounds is paired with its reported MIC.
# Test system: S. aureus MS5952 two-step mutant
# procedure details: MIC against stepwise QRDR mutants
# Type: cell-based
# test parameters: Staphylococcus aureus
Field: numeric (µg/mL). Do not append units.

The following compounds have reported results that may help.
{"columns": ["compound", "MIC / µg/mL"],
 "data": [
  ["O=C(O)c1cn(C2CC2)c2cc(N3CCNCC3)c(F)cc2c1=O", 8],
  ["CC1COc2c(N3CCN(C)CC3)c(F)cc3c(=O)c(C(=O)O)cn1c23 (stereo not drawn)", 8]
]}

Here is another compound to look at.
**Q:** Give the measured MIC of C[C@H]1COc2c(N3CCN(C)CC3)c(F)cc3c(=O)c(C(=O)O)cn1c23 .
**A:** 4
